tested on: α-isomaltosylglucosaccharide-forming enzyme; test: Influence of metal ions on α-isomaltosylglucosaccharide-forming enzyme activity (C9 strain); type: biochemical, Bacillus globisporus C9 strain; details: 1 mM; Table 3
property: effect on the enzyme activity, in words

INSERT INTO assay_data (structure, observed_value) VALUES
  ('[Ba+2]', 'also inhibited'),
  ('[Mn+2]', 'activated'),
  ('O=C(O)CN(CCN(CC(=O)O)CC(=O)O)CC(=O)O', 'strongly inhibited'),
  ('[Hg+2]', 'strongly inhibited');

"[Cu+2]" has a reported effect on the enzyme activity, in words of strongly inhibited

Form: compound = "[Sr+2]" ; effect on the enzyme activity, in words = also inhibited

get_value(item= "[Ca+2]" , readout=effect on the enzyme activity, in words) returns activated

----------
tested on: α-isomaltosylglucosaccharide-forming enzyme; test: Transfer-acceptor specificity, enzyme of C9 strain; assay type: biochemical, Bacillus globisporus C9 strain; design: key: −: no saccharide-transferred product was detected through transfer reaction to acceptor; ±: a saccharide-transferred product was detected in an amount less than one percent through transfer reaction to acceptor; +: a saccharide-transferred product was detected in an amount over one percent but less than 10% through transfer reaction to acceptor; ++: a saccharide-transferred product was detected in an amount over ten percent through transfer reaction to acceptor; details: acceptor 1.6%, PINE-DEX #100 donor 4%, one unit/g donor, 30° C., pH 6.0, 24 hours
property: Product of transferring reaction, Enzyme of C9 strain

INSERT INTO assay_data (compound, observed_value) VALUES
  ('OC[C@@H](O)[C@@H](O)[C@H](O)[C@@H](O)CO [Sorbitol, sorbitol]', '−'),
  ('OC[C@H]1O[C@@H]2O[C@H]3[C@H](O)[C@@H](O)[C@@H](O[C@H]4[C@H](O)[C@@H](O)[C@@H](O[C@H]5[C@H](O)[C@@H](O)[C@@H](O[C@H]6[C@H](O)[C@@H](O)[C@@H](O[C@H]7[C@H](O)[C@@H](O)[C@@H](O[C@H]1[C@H](O)[C@H]2O)O[C@@H]7CO)O[C@@H]6CO)O[C@@H]5CO)O[C@@H]4CO)O[C@@H]3CO [α-Cyclodextrin, α-cyclodextrin]', '−');

----------
test system: α-isomaltosylglucosaccharide-forming enzyme; experiment: Action on saccharides as substrates (TLC), enzyme of N75 strain; type: biochemical, Bacillus globisporus N75 strain; set-up: key: −: it showed no change; +: it showed a slight reduction of the color spot of the substrate and the formation of other reaction product; ++: it showed a high reduction of the color spot of the substrate and the formation of other reaction product; +++: it showed a substantial disappearance of the substrate spot and the formation of other reaction product; details: two units/g substrate, substrate 2% (w/v), 30° C., pH 6.0, 24 hours
property: Enzymatic action, Enzyme of N75 strain

INSERT INTO results (molecule, study_target, observed_value) VALUES
  ('OC[C@H]1O[C@@H](OC[C@H]2OC(O)[C@H](O)[C@@H](O)[C@@H]2O)[C@H](O)[C@@H](O)[C@@H]1O (stereo partly drawn) [Gentibiose, gentibiose]', 'α-isomaltosylglucosaccharide-forming enzyme', '−'),
  ('OC[C@H]1O[C@H](O[C@H]2[C@H](O)[C@@H](O)[C@H](O)O[C@@H]2CO)[C@H](O)[C@@H](O)[C@@H]1O [Maltose, maltose]', 'α-isomaltosylglucosaccharide-forming enzyme', '+'),
  ('OC[C@H]1O[C@H](O[C@H]2[C@H](O)[C@@H](O)[C@@H](OC[C@H]3OC(O)[C@H](O)[C@@H](O)[C@@H]3O)O[C@@H]2CO)[C@H](O)[C@@H](O)[C@@H]1O (stereo partly drawn) [Isopanose, isopanose]', 'α-isomaltosylglucosaccharide-forming enzyme', '++');
